- TARGET_ENTITY: Human mGlu2 (Homo sapiens, UniProt Q14416)
- Sequence (Q14416 19-872): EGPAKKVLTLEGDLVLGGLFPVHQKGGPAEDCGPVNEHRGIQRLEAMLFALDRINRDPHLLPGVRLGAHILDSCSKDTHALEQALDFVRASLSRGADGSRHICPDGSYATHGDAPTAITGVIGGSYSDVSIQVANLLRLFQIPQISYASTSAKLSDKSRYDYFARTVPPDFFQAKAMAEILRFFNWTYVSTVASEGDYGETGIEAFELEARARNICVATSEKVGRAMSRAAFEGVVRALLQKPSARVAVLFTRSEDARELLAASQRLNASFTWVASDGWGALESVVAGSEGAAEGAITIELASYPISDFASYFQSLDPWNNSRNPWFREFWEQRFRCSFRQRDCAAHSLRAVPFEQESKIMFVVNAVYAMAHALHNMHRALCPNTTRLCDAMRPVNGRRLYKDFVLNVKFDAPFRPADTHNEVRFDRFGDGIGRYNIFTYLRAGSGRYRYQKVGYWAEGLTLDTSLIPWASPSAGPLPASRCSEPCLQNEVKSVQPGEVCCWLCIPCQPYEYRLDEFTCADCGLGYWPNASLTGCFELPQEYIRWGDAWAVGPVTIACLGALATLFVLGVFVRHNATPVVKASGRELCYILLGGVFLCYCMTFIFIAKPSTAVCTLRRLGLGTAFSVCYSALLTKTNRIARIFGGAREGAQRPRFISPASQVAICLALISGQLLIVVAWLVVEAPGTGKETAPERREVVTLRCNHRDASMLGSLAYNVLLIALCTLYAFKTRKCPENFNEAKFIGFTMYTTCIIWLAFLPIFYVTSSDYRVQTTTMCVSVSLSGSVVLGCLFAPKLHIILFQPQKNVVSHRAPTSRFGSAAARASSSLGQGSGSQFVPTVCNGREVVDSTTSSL
- TEST_PROTOCOL: mGlu receptor in vitro assay, human mGlu2
ASSAY_READOUT: EC50 (µM)

Take a look at these entries with their results.
Quick check: EC50 on Human mGlu2 (Homo sapiens, UniProt Q14416), item CCCC(=O)c1ccc(OCCOCCNc2cccc(C(=O)O)c2)c(C)c1O ? 0.05

Notebook: pull reported EC50 for Human mGlu2 (Homo sapiens, UniProt Q14416), entry Cc1c(OCCCCSc2cccc(C(=O)O)c2)ccc(C(=O)CC(C)C)c1O 0.163

Fill in the recorded EC50 for this compound, with Human mGlu2 (Homo sapiens, UniProt Q14416) as test system: COc1ccccc1C(=O)c1ccc(OCc2cnc(-c3cccc(C(=O)O)c3)cn2)c(C)c1O 2.03

Item: Cc1c(OCC#CCOc2ccc(C(=O)CC(C)(C)C)c(O)c2C)cccc1C(=O)O Test system: Human mGlu2 (Homo sapiens, UniProt Q14416) Read-out: EC50 Value: ? 0.004

What measured EC50 is associated with [2H]/C(=C(/[2H])C([2H])([2H])Oc1ccc(C(=O)CCC)c(O)c1C)C([2H])([2H])Oc1cccc(C(=O)O)c1C on Human mGlu2 (Homo sapiens, UniProt Q14416)? 0.008

(I) CCCC(=O)c1ccc(OCCCCCOc2ccc(C(=O)O)c(Cl)c2)c(C)c1O
(II) CCCC(=O)c1ccc(OCCOCCOc2cccc(C(=O)O)c2C)c(C)c1O
(III) COc1ccc(C(=O)O)cc1-c1cnc(COc2ccc(C(=O)CC(C)(C)C)c(O)c2C)cn1
(IV) COc1ccc(C(=O)O)cc1OCCN(CCOc1ccc(C(=O)CC(C)(C)C)c(O)c1C)S(=O)(=O)c1ccc(C)cc1
(V) COc1ccc(C(=O)O)cc1OCCCCCCCCOc1ccc(C(=O)CC(C)(C)C)c(O)c1C
Sort the 5 compounds by EC50; largest first, smallest last. Rank the items, then write their labels in that order. V, IV, III, II, I

(A) COc1ccc(C(=O)O)cc1OCCCCCCOc1ccc(C(=O)CC(C)(C)C)c(O)c1C
(B) COc1cccc(C(=O)c2ccc(OCc3cnc(-c4cccc(C(=O)O)c4)cn3)c(C)c2O)c1
Could you kindly indicate whether A or B has the higher EC50 value? Lab log: write the label of the selected item as the result. B

(1) COc1ccc(C(=O)O)cc1OCCCCSc1ccc(C(=O)CC(C)(C)C)c(O)c1C
(2) COc1cc(F)c(C(=O)O)cc1-c1cnc(COc2ccc(C(=O)CC(C)(C)C)c(O)c2C)cn1
(3) CCCC(=O)c1ccc(OC/C=C/COc2cccc(C(=O)O)c2C)c(C)c1O
Please list these compounds in decreasing order of EC50. Response field: labels, in requested order. 1, 2, 3
(1: 0.126 µM, 2: 0.076 µM, 3: 0.01 µM)

###

- TARGET_ENTITY: UniProt Q14832
- Sequence (Q14832 23-879): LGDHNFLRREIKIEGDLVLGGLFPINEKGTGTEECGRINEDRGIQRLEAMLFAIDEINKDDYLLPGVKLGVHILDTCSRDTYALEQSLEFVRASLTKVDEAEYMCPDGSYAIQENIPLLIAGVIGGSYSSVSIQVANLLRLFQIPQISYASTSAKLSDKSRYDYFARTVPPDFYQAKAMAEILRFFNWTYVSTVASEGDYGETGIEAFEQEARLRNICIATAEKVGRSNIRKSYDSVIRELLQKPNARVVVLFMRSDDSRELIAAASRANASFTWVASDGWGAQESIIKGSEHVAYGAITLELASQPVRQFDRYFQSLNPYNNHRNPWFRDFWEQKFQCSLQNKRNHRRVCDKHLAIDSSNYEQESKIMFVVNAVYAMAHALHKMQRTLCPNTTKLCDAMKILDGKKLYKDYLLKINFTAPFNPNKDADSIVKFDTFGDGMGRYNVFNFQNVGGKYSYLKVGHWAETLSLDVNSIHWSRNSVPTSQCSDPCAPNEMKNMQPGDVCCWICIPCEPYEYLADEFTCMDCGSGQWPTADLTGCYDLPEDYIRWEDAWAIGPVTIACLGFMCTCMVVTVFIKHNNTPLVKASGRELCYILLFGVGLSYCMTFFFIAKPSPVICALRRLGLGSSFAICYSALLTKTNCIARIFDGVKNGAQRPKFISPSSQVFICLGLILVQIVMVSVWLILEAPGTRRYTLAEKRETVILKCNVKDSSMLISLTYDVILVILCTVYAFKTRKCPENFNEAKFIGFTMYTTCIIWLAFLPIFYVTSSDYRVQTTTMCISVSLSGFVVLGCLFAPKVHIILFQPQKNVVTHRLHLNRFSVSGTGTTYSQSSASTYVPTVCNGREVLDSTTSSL
- TEST_PROTOCOL: mGlu receptor in vitro assay, human mGlu3
pEC50: −log10 of the molar value.
ASSAY_READOUT: pEC50

(A) Cc1cc(C(=O)O)ccc1-c1cnc(COc2ccc(C(=O)CC(C)(C)C)c(O)c2C)cn1
(B) CCCC(=O)c1ccc(OCc2cnc(-c3cccc(C(=O)O)c3OC)cn2)c(C)c1O
Field: lower recorded pEC50 (choose A or B ) Reply with the label of the item you choose. B
